- ASSAY NAME: NCI Yeast Anticancer Drug Screen. Data for the wt1 strain (AID 149);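 also: 0% = growth of vehicle-treated wt1 cultures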
- CONDITION DETAILS: S. cerevisiae wt1 strain (SPY 50644) growth inhibition; at 33.0 µM; hits give high values
This is part of a sample that, as a whole, favours compounds with a hit. Of some 79,000 tested, about 15% had one in any assay. Calls of active or inactive are those of the source. Rule as the data show it: active = growth inhibition above about 70%; inactive = the rest.
ENDPOINT LABEL: growth inhibition

In the examples that follow, each entry is paired with its recorded growth inhibition.
COMPOUND | growth inhibition
O=P(Oc1ccc(Cl)cc1)(Oc1ccc(Cl)cc1)N1CC1 | -2% (inactive)
Nc1ccccc1C(=O)OCCc1ccccc1 | -26% (inactive)
O=C(NNC(=O)OCC(Cl)(Cl)Cl)OCC(Cl)(Cl)Cl | -3% (inactive)
C/C(=N\N=C(N)N)C(CN1CCOCC1)C(c1ccccc1)c1c(O)c2ccccc2oc1=O (stereo unspecified) | 3% (inactive)
O=S(=O)(O)c1ccc(Cl)cc1.[Cd] | 55% (inactive)

Next item in the queue.
I would be grateful if you could share the reported growth inhibition for `O=[N+]([O-])c1oc2ccc3ccccc3c2c1CCO` .
97% (active)

----------
- ASSAY NAME: NCI Yeast Anticancer Drug Screen. Data for the rad50 strain (AID 155);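 also: 0% = growth of vehicle-only cultures of the same strain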
- CONDITION DETAILS: S. cerevisiae rad50 strain growth inhibition; at 50.0 µM
About 79,000 compounds went through this panel and 15% of them were active in at least one assay; those are over-represented in the sample as a whole. Activity calls are given as the source filed them. Rule as the data show it: active = growth inhibition above about 70%; inactive = the rest.
Field 'call' accepts active, inactive

A selection of reference data follows.
COMPOUND | CLASSIFICATION
CCNCC(=O)O[C@]1(CC)C(=O)OCc2c1cc1n(c2=O)Cc2cc3ccccc3nc2-1 | active
C[C@]12CCC3[C@@H](CC[C@@H]4c5nonc5CC[C@]34C)C1CCC2=O (stereo partly specified) | active

Entry CS(=O)(=O)[O-].CS(=O)(=O)[O-].NC1CCCCC1N.[Pt+4] (stereo unspecified) : call = ?
active

Entry `Fc1cccc(C2N(Cc3ccc(N(CCCl)CCCl)cc3Cl)CCCN2Cc2ccc(N(CCCl)CCCl)cc2Cl)c1` : call = ?
inactive

Entry CC1=C(CO)C(=O)OC(C(C)C2CCC3C4CC5OC56C(O)C(N5CC5)=CC(=O)C6(C)C4CCC23C)C1 (stereo unspecified) : call = ?
active

Entry CCOC(=O)C1C2c3ccccc3C(c3ccccc32)C1C(=O)OCC (stereo unspecified) : call = ?
inactive

----------
- ASSAY NAME: NCI Yeast Anticancer Drug Screen. Data for the sgs1 mgt1 strain (AID 161);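 also: 0% = growth of cultures given vehicle only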
- CONDITION DETAILS: S. cerevisiae sgs1 mgt1 strain, at 50.0 µM (retest, dose inferred, filed as 5.0)
The panel holds about 79,000 compounds, 15% with a hit somewhere; the sample as a whole holds those more often. The source made the active and inactive calls. Rule as the data show it: active = growth inhibition above about 70%; inactive = the rest.
Field 'call' accepts 1.0 = active, 0.0 = inactive

A selection of reference data follows.
COMPOUND | CLASSIFICATION
COC(=O)C1=C(C)NC(=S)NC1c1ccc(N(CCCl)CCCl)cc1Cl (stereo not given) | 1.0
Cn1c(=O)c2[nH]cnc2n(C)c1=O.[CH2-]C(Cc1cccc2cc(C(=O)O)c(=O)oc12)OC.[Hg+2].[OH-] (stereo not given) | 0.0
Brc1ccc(N2C[N+](c3ccc(Br)cc3)=NC(c3ccccc3)=N2)cc1 | 1.0
CC(Br)CN(CC(C)Br)c1ccc2c(c1)Cc1ccccc1-2 (stereo not given) | 1.0
O=[N+]([O-])c1ccc(-n2nc3ccc4c(no[n+]4[O-])c3[n+]2[O-])c([N+](=O)[O-])c1 | 1.0

# next compound below
Entry `O=C1NC(=O)C([N+](=O)[O-])C(=O)N1` : call = ?
0.0

Every entry's value here was drawn from PubChem BioAssay (NCI).
